# method notes: Cytotoxicity (XTT cell viability), BV-2
# Format: cell-based
# study conditions: mouse, BV-2 microglial cells, LPS/IFN-γ-stimulated, LPS-IFN-γ-induced cells, mean ± SEM (n = 6)
readout kind: IC50 at 16 h (µM)
Supply the numeric figure in µM, leaving out any unit text.

C[C@H]1Oc2c(c(O)c3c(=O)c4ccc(O)c(O)c4oc3c2CCC(C)(C)O)C1(C)C [Compound 4, gerontoxanthone C hydrate] :: 27.7
CC1(C)c2c(cc3oc4ccc(O)c(O)c4c(=O)c3c2O)O[C@@H]1CO [Compound 5, 3′-hydroxycalothorexanthone] :: 74.7

Next item in the queue.
### Prompt Annotate the molecule C[C@@H]1Oc2cc(O)c3c(=O)c4ccc(O)c(O)c4oc3c2C1(C)C with its measured IC50 at 16 h.
### Response 31.7
